meta.source: PubChem BioAssay

target: Alpha-bungarotoxin (Bungarus multicinctus); test: alpha-bungarotoxin binders on microarray, profiling panel, artefact control for SMM control protein annotation, biochemical, small-molecule microarray, Alexa647 label, 635/667 nm fluorescence (AID 1117); details: alpha-BTX-A647 binding fluorescence, higher = more signal
measurement_type: composite z-score

Worked cases, answers included:
INSERT INTO results (compound, study_system, value_reported) VALUES
  ('COC(=O)C(CC#Cc1ccc2c(c1)[C@]1(C(=O)N2)[C@H](C(=O)N2CCN(c3ncccn3)CC2)[C@H]2C(=O)O[C@H](c3ccccc3)[C@H](c3ccccc3)N2[C@@H]1c1ccc(O)cc1)C(=O)OC', 'Alpha-bungarotoxin (Bungarus multicinctus)', 2.29),
  ('[N-]=[N+]=NCc1ccccc1[C@H]1OC(c2ccc(OCCCO)cc2)=N[C@@]1(Cc1ccccc1N=[N+]=[N-])C(=O)O', 'Alpha-bungarotoxin (Bungarus multicinctus)', 1.98),
  ('CCCN1C(=O)[C@@]2(c3ccc([N+](=O)[O-])cc3)CC(=O)N(C3CCCCC3)[C@@H]2c2ccc(CO)cc21', 'Alpha-bungarotoxin (Bungarus multicinctus)', -0.171);

Incoming: Give composite z-score for the following compound: `CCc1cccc(NC(=O)O[C@H]2[C@H](OC(=O)Nc3ccccc3-c3ccccc3)[C@H](OC(=O)Nc3ccccc3-c3ccccc3)[C@@H](OC)O[C@@H]2CO)c1`
Outgoing: 1.29

Incoming: Give composite z-score for the following compound: `Cc1ccc(S[C@]2(C(=O)NCC(C)C)CC(=O)N(C(C)C)[C@@H]2c2ccc(CO)cc2I)cc1`
Outgoing: -0.659

Incoming: Give composite z-score for the following compound: `C=CCOC(=O)[C@H]1[C@@H]2C(=O)O[C@@H](c3ccccc3)[C@@H](c3ccccc3)N2[C@@H](c2ccc(OCCOC(=O)[C@@H]3C[C@@H]4C(=O)N[C@@H](Cc5ccccc5)C(=O)N4[C@@H]3c3ccc(O)cc3)cc2)[C@]12C(=O)Nc1ccc(I)cc12`
Outgoing: 0.875

Incoming: Give composite z-score for the following compound: `Cc1ccc(N2C(=O)c3ccccc3[C@@H](C(=O)NCCN3CCOCC3)[C@@H]2c2ccc(CO)cc2)nc1`
Outgoing: -0.843

Incoming: Give composite z-score for the following compound: `O=C(NCC(F)(F)F)[C@@H]1c2ccccc2C(=O)N(Cc2cc(C(F)(F)F)cc(C(F)(F)F)c2)[C@H]1c1ccc(CO)cc1`
Outgoing: 0.0956

Incoming: Give composite z-score for the following compound: CC(C)c1ccc(NN2C(C(O)C(C)c3ccccc3)C=CC3C(=O)N(c4ccccc4)C(=O)C32)cc1 (centres undefined)
Outgoing: 2.13

Incoming: Give composite z-score for the following compound: O=C1NC(=O)C2C1C=CC(C(O)c1ccc(F)cc1)N2Nc1ccc(Cl)cc1Cl (centres undefined)
Outgoing: 0.712

Incoming: Give composite z-score for the following compound: `COCCCNC(=O)[C@@]1(c2ccc([N+](=O)[O-])cc2)CC(=O)N(C2CCCCC2)[C@@H]1c1ccc(CO)cc1I`
Outgoing: 0.302

----------
system: Noggin (protein binding on small-molecule microarray); test: Noggin binders on small-molecule microarray, primary screen, biochemical, 635/667 nm fluorescence (AID 1095); conditions: 635 nm fluorescence, higher = more signal;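 note: score merges 667 nm feature fluorescence with signal to noise over triplicate slides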
Listed below: composite z-score values for each entry.
Give only the figure.

INSERT INTO results (molecule, value_reported) VALUES
  ('C=CCNC(=O)[C@@H]1[C@H]2C(=O)O[C@H](c3ccccc3)[C@H](c3ccccc3)N2[C@H](c2ccc(O)cc2)[C@@]12C(=O)Nc1ccc(C#CC3=CCCCC3)cc12', 1.03),
  ('O=C1O[C@H](c2ccccc2)[C@H](c2ccccc2)N2[C@H]1[C@@H](C(=O)Nc1nc3ccccc3s1)[C@]1(C(=O)Nc3ccccc31)[C@H]2c1ccccc1OCCO', 0.712),
  ('COc1cc(CO)cc(I)c1O[C@H]1C=C(C(=O)NCCO)C[C@@H](N(CCN2CCOCC2)C(=O)C2CCCO2)[C@@H]1O (stereo not given in full)', 0.34),
  ('C=C(C(=O)CC[C@@H](OC(=O)c1ccccc1-c1ccccc1C(=O)O)c1ccc(OCCO)cc1)C(C)C', 1.35),
  ('Cc1ccc(S[C@]2(C(=O)NCCN3CCOCC3)CC(=O)N(C(C)C)[C@@H]2c2ccc(CO)cc2I)cc1', -0.889);

Incoming: Give composite z-score for the following molecule: `COCCOC(=O)N1C(=O)[C@@]2(c3ccccc31)[C@H](C(=O)Nc1nc3ccccc3s1)[C@H]1C(=O)O[C@H](c3ccccc3)[C@H](c3ccccc3)N1[C@@H]2c1ccccc1OCCO`
Outgoing: 0.579

Incoming: Give composite z-score for the following molecule: `[N-]=[N+]=NCc1ccccc1[C@H]1OC(c2ccc(OCCCO)cc2)=N[C@@]1(CCS(=O)(=O)c1ccccc1)C(=O)NCCN1CCOCC1`
Outgoing: 0.0038

Incoming: Give composite z-score for the following molecule: O=C1C2C=CC(C(O)C(c3ccccc3)c3ccccc3)N(Nc3ccccc3F)C2C(=O)N1c1ccccc1 (stereo not given)
Outgoing: 0.295

Incoming: Give composite z-score for the following molecule: `CC(C)(C)OC(=O)CC[C@]1(C(=O)N2CCOCC2)COC(c2ccc(OCCCO)cc2)=N1`
Outgoing: -0.778

Incoming: Give composite z-score for the following molecule: C[C@]12C(=O)N(CCO)[C@@H]3C(=O)N(c4ccc(Cl)cc4)CC=CC31O[C@@H]1/C=C\CCCOC(=O)C12 (stereo not given in full)
Outgoing: -0.464

Incoming: Give composite z-score for the following molecule: `CCCNC(=O)[C@@]1(Sc2ccc(C)cc2)CC(=O)N(Cc2cc(C(F)(F)F)cc(C(F)(F)F)c2)[C@@H]1c1ccc(CO)cc1`
Outgoing: -1.13

Incoming: Give composite z-score for the following molecule: `CCCCC=C[C@@H](NC(=O)C(C)(C)C)c1ccccc1`
Outgoing: -0.0096

----------
test: FRG1 promoter luciferase signal modulators, primary screen, FRG1 inhibition for FSHD, cell-based, C2C12 myotubes, firefly/Renilla luciferase, luminescence (AID 1084); settings: higher = more signal, called active from +8 up or from −8 down
Calls of active or inactive are those of the source.
measurement_type: z-score

INSERT INTO results (chem_smiles, value_reported) VALUES
  ('C=CCNC(=O)[C@H]1[C@@H]2C(=O)O[C@@H](c3ccccc3)[C@@H](c3ccccc3)N2[C@@H](c2ccc(OCCO)cc2)[C@]12C(=O)N(C(=O)OCCOC)c1ccc(C#CCNC(N)=O)cc12', '-0.988 (inactive)'),
  ('CCCC=C(CCC)[C@@H](NC(=O)c1ccc(C(=O)OC)cc1)c1ccc(C(=O)OC)cc1', '1.24 (inactive)'),
  ('CCOC(=O)C[C@H]1[C@H](OC(=O)c2cc3ccccc3oc2=O)[C@@H](NC(=O)c2ccc(-c3ccccc3)cc2)c2cc(OCCCO)ccc2N1C(=O)Cc1ccc(OC)cc1', '0.228 (inactive)');

The record that follows has no z-score shown yet.
Incoming: Give z-score for the following compound: `COCCOC(=O)N1C(=O)[C@@]2(c3cc(C#CCCO)ccc31)[C@H](c1ccc(O)cc1)N1[C@H](c3ccccc3)[C@H](c3ccccc3)OC(=O)[C@H]1[C@@H]2C(=O)NC[C@H](O)c1ccccc1`
Outgoing: -1.69 (inactive)

----------
biological target: Luciferin 4-monooxygenase (Photinus pyralis); assay: firefly luciferase enzyme inhibitors, primary screen, biochemical, luminescence, purified enzyme, 2006 set (AID 1141); conditions: SteadyGlo luminescence, 30 min, higher = more signal, called active from +8 up or from −8 down;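 note: cell-free assay with purified firefly luciferase at 100 ng per well in PBS; test concentration not given here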
measurement_type: z-score
Give only the figure.

INSERT INTO results (molecule, value_reported) VALUES
  ('COC(=O)[C@@]1(Cc2ccc(F)cc2)[C@@H]2C(=CC(=O)[C@H]2CC(=O)C(=O)N2CCCC2)CN1C(=O)c1ccccc1', -8.12),
  ('COc1cc(CO)cc(I)c1O[C@H]1C=C(C(=O)NCCO)C[C@@H](N(CCN2CCOCC2)C(=O)C2CCCO2)[C@@H]1O (some centres not stated)', -0.91),
  ('O=C(NC1CC1)[C@@H]1c2ccccc2C(=O)N(C2CCCCC2)[C@H]1c1ccc(CO)cc1', 0.0436);

Incoming: Give z-score for the following molecule: `NCCCCCCNC(=O)[C@@H]1C[C@@H]2C(=O)NCC(=O)N2[C@@H]1c1cccc(OCCO)c1`
Outgoing: -1.66

Incoming: Give z-score for the following molecule: `COc1ccc([Si](C)(C)[C@H]2[C@H](CC(=O)N(CCO)Cc3ccccc3)O[C@@]3(C(=O)N(Cc4cccc(N5CCCCC5=O)c4)c4ccccc43)[C@@H]2C)cc1`
Outgoing: -1.55

Incoming: Give z-score for the following molecule: [N-]=[N+]=Nc1ccccc1C[C@@]1(C(=O)NCC(O)CO)N=C(c2ccc(OCCCO)cc2)O[C@@H]1c1ccccc1N=[N+]=[N-] (some centres not stated)
Outgoing: -4.27

Incoming: Give z-score for the following molecule: `CC[C@@H]1C=C(C(=O)O)[C@H](c2cccc(Cl)c2)N1S(=O)(=O)c1ccc(C)cc1`
Outgoing: 0.556
